Below, each entry is listed with its recorded IC50.
Target: T1, human CD19 (human, UniProt P15391 20-556)
T1 sequence: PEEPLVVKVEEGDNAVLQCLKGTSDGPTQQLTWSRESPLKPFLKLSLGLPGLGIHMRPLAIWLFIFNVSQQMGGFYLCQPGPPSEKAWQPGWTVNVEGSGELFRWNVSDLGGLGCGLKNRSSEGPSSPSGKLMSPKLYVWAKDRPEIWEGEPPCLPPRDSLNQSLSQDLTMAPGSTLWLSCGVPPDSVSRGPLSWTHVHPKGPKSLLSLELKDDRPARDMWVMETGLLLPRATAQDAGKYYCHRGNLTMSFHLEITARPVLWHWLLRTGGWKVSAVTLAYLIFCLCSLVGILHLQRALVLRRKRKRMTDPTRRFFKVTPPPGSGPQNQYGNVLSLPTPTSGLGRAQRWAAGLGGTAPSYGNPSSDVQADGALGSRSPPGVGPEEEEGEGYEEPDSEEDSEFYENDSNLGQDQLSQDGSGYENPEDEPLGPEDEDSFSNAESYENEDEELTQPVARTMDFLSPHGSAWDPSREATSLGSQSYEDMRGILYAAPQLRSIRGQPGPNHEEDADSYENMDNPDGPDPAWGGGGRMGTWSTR
Experiment: flow cytometry competition for binding with FMC63 (n = 2)
TEST READOUT: IC50 (nM)

Clone 227 scFv (scFv, Human scFv) scFv: EVQLVQSGGGLVQPGRSLRLSCAASGFTFDDYAMHWVRQAPGKGLEWVSGISWNSGSIGYADSVKGRFTISRDNAKNSLYLQMNSLRAEDTAVYYCARDQGYHYYDSAEHAFDIWGQGTVVTVSSGGGGSGGGGSGGGGSDIQLTQSPSTLSASVGDRVTITCRASQSISRWLAWYQQKPGKAPKLLIYDASNLETGVPSRFSGSGSGTDFTFTISSLQPEDIATYYCQQYDNLPLTFGGGTKVEIK: 56.1
Clone 17 scFv (scFv, Human scFv, VH-(G4S)3-VL) scFv: EVQLVESGGGLVQPGRSLRLSCAASGFTFDDYAMHWVRQAPGKGLEWVSGISWNSGRIGYADSVKGRFTISRDNAKNSLFLQMNSLRAEDTAVYYCARDQGYHYYDSAEHAFDIWGQGTMVTVSSGGGGSGGGGSGGGGSQSALTQPASVSGSPGQSITIFCTGTSSDVGGYNYVSWYQQLPGTAPKLLIYSNNQRPSGVPDRFSGSKSGTSASLAISGLRSEDEADYYCAAWDDSLSVVFGGGTKLTVL: 35.4
Clone 76 scFv (scFv, Human scFv, VH-(G4S)3-VL) scFv: EVQLVESGGGLVQPGRSLRLSCAASGFTFDDYAMHWVRQAPGKGLEWVSGISWNSGRIGYADSVKGRFTISRDNAKNSLFLQMNSLRAEDTAVYYCARDQGYHYYDSAEHAFDIWGQGTVVTVSSGGGGSGGGGSGGGGSQSVLTQPPSVSAAPGQEVTISCSGSSSNIGNNYVSWYQQLPGTAPKLLIYDNDKRPSGIPDRFSGSKSGTSATLGITGLQTGDEADYYCGTWDGNLSAVFGGGTKVTVL: 18.2
Clone 1300 scFv (scFv, Human scFv) scFv: QMQLVQSGGGLVQPGRSLRLSCAASGFTFDDYAMHWVRQAPGKGLEWVSGISWNSGSIGYADSVKGRFTISRDNAKNSLYLQMNSLRAEDTAVYYCARDQGYHYYDSAEHAFDIWGQGTVVTVSSGGGGSGGGGSGGGGSAIRMTQSPSTLSASVGDRVTITCRASQSISHYLAWYQQKPGKAPKLLIFDASRLASGVPSRFSGSGSGTDFTLTISSLQPEDFATYYCQQSYGAPMFTFGPGTRVDLK: 3.9
